Each recorded value in this set is attributed to the supplement of paper PMC10567573.

B1: PPP2R2C (parent)
chain: YSSSKGSLRLCDMRAAALCDKHSK

Variants of: B1
Assay Details: protein stability index of a GFP-peptide fusion (GPS, HEK-293T) (PSI 1-6); higher = more stable;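 further: lentivirally expressed fusions sorted by FACS into six bins by GFP to DsRed ratio, PSI derived from sequencing read proportions per bin multiplied by bin number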
Run Conditions: c terminus: a fixed tail appended
Given measured protein stability index, output true (1) if it is greater than or equal to 2 and false (0) if not.

YSSSKGSLRLCDMRAAALPDKHSK [C19P]    false (0)
WSSSKGSLRLCDMRAAALCDKHSK [Y1W]    true (1)

Q: Form field: protein stability index at least 2? Entry: YSSSKGSLRLCDMRCAALCDKHSK [A15C]
Ans: false (0)

Q: Form field: protein stability index at least 2? Entry: YSSSKGSLRLCHMRAAALCDKHSK [D12H]
Ans: true (1)

Q: Form field: protein stability index at least 2? Entry: YSSSKGHLRLCDMRAAALCDKHSK [S7H]
Ans: true (1)
